System: Escherichia coli TOP10;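 note: peptides expressed intracellularly from a pBAD plasmid library in pooled LB shake-flask culture, induced with 0.3% L-arabinose, DNA abundance read by NGS, three biological replicates, DESeq2 with apeglm shrinkage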
assay text: shrunken log2 fold change of peptide-encoding DNA abundance (4.5 h post-induction vs induction); higher = less antimicrobial activity (less host growth inhibition)
condition context: time post-induction: 4.5 h; library: site-saturation at positions 5, 18, 19, 20
Entries annotated with measured shrunken log2 fold change
measured metric: shrunken log2 fold change

{"sequence string": "RRIRLRPPRLPRPRPRPYWWPRP", "measured result": 0.0346}
{"sequence string": "RRIRKRPPRLPRPRPRPGTRPRP", "measured result": 0.165}
{"sequence string": "RRIRGRPPRLPRPRPRPFRWPRP", "measured result": 0.053}
{"sequence string": "RRIRERPPRLPRPRPRPTALPRP", "measured result": -0.415}
{"sequence string": "RRIRKRPPRLPRPRPRPALGPRP", "measured result": 0.0812}
{"sequence string": "RRIRLRPPRLPRPRPRPLVVPRP", "measured result": -0.113}
{"sequence string": "RRIRDRPPRLPRPRPRPGYGPRP", "measured result": -0.0481}
{"sequence string": "RRIRKRPPRLPRPRPRPESTPRP", "measured result": 1.38}
